pIC50, Serine/threonine-protein kinase Chk1 (Homo sapiens), per-entry values.
In simple prose, pIC50 is minus the logarithm base ten of a concentration in moles per litre.

compound: O=c1[nH]c2sccc2c(N[C@H]2CCCNC2)c1-c1nc2ccccc2[nH]1
pIC50: 8.28

Now consider the entry below.
Which pIC50 reading was recorded for the compound O=c1[nH]c2sccc2c(NC2CN3CCC2CC3)c1-c1nc2ccccc2[nH]1 (stereo not given) ? 7.85

* * *

# target-system: Serine/threonine-protein kinase Chk1 (Homo sapiens, UniProt O14757)
# protocol-description: Inhibition of Chk1 (unknown origin) by luminescent ADP-Glo assay
pIC50 values by entry
As a rule, pIC50 stands for the negative log10 of the concentration, concentration in M.

Would you please look over these solved cases?
molecule: O=c1[nH]c2sc(Cl)cc2c(NC2CCCNC2)c1-c1nc2ccccc2[nH]1 (stereo not given)
numeric-result: 8.39
//
molecule: O=c1[nH]c2sc(Cl)cc2c(NC2CN3CCC2CC3)c1-c1nc2ccccc2[nH]1 (stereo not given)
numeric-result: 8.21

Alright, here's another molecule for you.
Fill blank: measured pIC50 of the molecule COc1ccc2[nH]c(-c3c(NC4CN5CCC4CC5)c4cc(Cl)sc4[nH]c3=O)nc2c1 (stereo not given) is ____. 8.27

* * *

# target-system: Aurora kinase A (Homo sapiens, UniProt O14965)
# Sequence (O14965 whole entry): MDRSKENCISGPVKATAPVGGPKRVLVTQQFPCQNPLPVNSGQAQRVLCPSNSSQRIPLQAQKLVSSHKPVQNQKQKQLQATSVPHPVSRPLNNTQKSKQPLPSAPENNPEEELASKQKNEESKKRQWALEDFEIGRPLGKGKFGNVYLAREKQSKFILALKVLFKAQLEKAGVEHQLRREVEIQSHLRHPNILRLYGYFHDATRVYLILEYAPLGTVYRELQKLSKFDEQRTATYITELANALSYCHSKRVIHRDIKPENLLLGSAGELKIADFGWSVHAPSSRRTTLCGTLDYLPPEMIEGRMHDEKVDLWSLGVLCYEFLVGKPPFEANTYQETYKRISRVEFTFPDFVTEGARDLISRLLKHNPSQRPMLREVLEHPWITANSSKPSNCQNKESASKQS
value-kind: pIC50
Expect pIC50 as a plain number equal to -log10 of the molar concentration.

compound: O=c1[nH]c2ccsc2c(NC2CCCNC2)c1-c1nc2ccccc2[nH]1 (stereo not given)
numeric-result: 6.69
--
compound: COc1ccc2[nH]c(-c3c(NC4CN5CCC4CC5)c4cc(Cl)sc4[nH]c3=O)nc2c1 (stereo not given)
numeric-result: 5.85

Field: next compound
Fill in the blank: the reported pIC50 of O=c1[nH]c2sc(Cl)cc2c(NC2CCCNC2)c1-c1nc2ccccc2[nH]1 (stereo not given) is ____. 5.98

* * *

Parameter IC50: see the listing below.
# target-system: Protein kinase C (PKC)
# protocol-description: Inhibition of PKC (unknown origin) by Z'-LYTETM kinase assay
# Set-up: species or system Homo sapiens
Record the value in nM, omitting the unit from your answer.

Need IC50 of O=c1[nH]c2sccc2c(NC2CN3CCC2CC3)c1-c1nc2ccccc2[nH]1 (centres undefined) , thanks. 1001.81

What about this compound? COc1ccc2[nH]c(-c3c(N[C@H]4CCCNC4)c4cc(Cl)sc4[nH]c3=O)nc2c1 204.48

Same again, this time with O=c1[nH]c2sc(Cl)cc2c(NC2CCCNC2)c1-c1nc2ccccc2[nH]1 (centres undefined) 168.89

Here is the next compound: O=c1[nH]c2sccc2c(N[C@H]2CCCNC2)c1-c1nc2ccccc2[nH]1 522.51

* * *

# Species on record: Homo sapiens
# protocol-description: Selectivity index, ratio of IC50 for CDK2/cyclinA (unknown origin) to IC50 for Chk1 (unknown origin)
Catalogue of Ratio IC50 values
Keep it simple and answer with nothing but the number.

compound: O=c1[nH]c2sccc2c(NC2CN3CCC2CC3)c1-c1nc2ccccc2[nH]1 (stereo not given)
value-kind: Ratio IC50
numeric-result: 100

With those in mind, consider the next compound.
Find the recorded Ratio IC50 belonging to O=c1[nH]c2sc(Cl)cc2c(NC2CN3CCC2CC3)c1-c1nc2ccccc2[nH]1 (stereo not given) and report it. 100

* * *

# target-system: Serine/threonine-protein kinase Chk1 (Homo sapiens, UniProt O14757)
# Sequence (O14757 whole entry): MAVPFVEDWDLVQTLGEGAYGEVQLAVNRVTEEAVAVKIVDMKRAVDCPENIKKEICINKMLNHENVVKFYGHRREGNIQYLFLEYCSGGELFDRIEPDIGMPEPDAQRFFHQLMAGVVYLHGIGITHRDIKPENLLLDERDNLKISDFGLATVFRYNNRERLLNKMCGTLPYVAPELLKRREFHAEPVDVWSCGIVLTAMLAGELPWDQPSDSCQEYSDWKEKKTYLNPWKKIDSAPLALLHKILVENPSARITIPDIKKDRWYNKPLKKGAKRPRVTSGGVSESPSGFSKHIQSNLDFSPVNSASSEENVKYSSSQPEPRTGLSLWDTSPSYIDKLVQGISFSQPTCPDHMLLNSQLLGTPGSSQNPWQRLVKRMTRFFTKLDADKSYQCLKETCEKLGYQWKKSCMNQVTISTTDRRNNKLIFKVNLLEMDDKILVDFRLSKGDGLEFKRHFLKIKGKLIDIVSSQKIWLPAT
pIC50: −log10 of the molar value.
value-kind: pIC50

structure-smiles-string: O=c1[nH]c2sccc2c(NCCO)c1-c1nc2ccccc2[nH]1
value-kind: pIC50
result: < 5.00

structure-smiles-string: NCCNc1c(-c2nc3ccccc3[nH]2)c(=O)[nH]c2sccc12
value-kind: pIC50
result: < 5.00

What measured pIC50 goes with CNCCNc1c(-c2nc3ccccc3[nH]2)c(=O)[nH]c2sccc12 ? < 5.00

* * *

The following compounds are shown together with reported Ratio IC50 values.
# Species on record: Homo sapiens
# protocol-description: Selectivity index, ratio of IC50 for CDK2/cyclinA (unknown origin) to IC50 for Chk1 (unknown origin)

As a guide, the following entries are already answered.
compound: O=c1[nH]c2sccc2c(NC2CCCNC2)c1-c1nc2ccccc2[nH]1 (stereo not drawn)
Ratio IC50: > 20

compound: COc1ccc2[nH]c(-c3c(N[C@H]4CCCNC4)c4cc(Cl)sc4[nH]c3=O)nc2c1
Ratio IC50: > 20

Shift focus to the following entry.
Record request: Ratio IC50 value, item O=c1[nH]c2sccc2c(N[C@H]2CCCNC2)c1-c1nc2ccccc2[nH]1 > 20
